The following compounds are shown together with reported %Inh values.
# System: ULK3
# Measurement Parameters: concentration: 1 μM, replicates: in singlicate; n = 1;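 note: KINOMEscan kinase panel screen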

# Compound, %Inh / %
records = [
    ("Cc1cccc(Cn2ccn3c(=O)cc(N4CCOCC4)nc23)c1", 10),
    ("Cc1c(Cn2c(C)nn3c(=O)cc(N4CCOC(C)C4)nc23)cccc1C(F)(F)F (stereo not drawn)", 15),
    ("Cl.Oc1cccc(Nc2ccnc3cc(-c4ccncc4)ccc23)c1", 31),
    ("CN(C(=O)c1ccc(-c2cc(-c3c[nH]nc3-c3ccccn3)ccn2)cc1)C1CCOCC1", 12),
    ("Cc1cccc(-c2nc(-c3ccc(S(C)(=O)=O)cc3)sc2-c2ccncc2)c1", 0),
    ("O=C(NCCCN1CCOCC1)c1cccc(Nc2nccc(Nc3ccc(Oc4ccccc4)cc3)n2)c1", 11),
    ("Cn1cc(-c2ccc3c(c2)CCN3C(=O)Cc2ccccc2Cl)c2c(N)ncnc21", 6),
    ("Cn1ccc2ncnc(Oc3ccc(NC(=O)Nc4ccncc4)c(Cl)c3)c21", 0),
    ("c1ccc(-c2cc(-c3c[nH]nc3-c3ccccn3)ccn2)cc1", 0),
    ("COc1ccc(COc2cc(-n3cnc4ccccc43)sc2C(N)=O)cc1", 0),
    ("Fc1ccc(-c2ncn(CCCN3CCOCC3)c2-c2ccccn2)cc1", 0),
    ("CC(C)Oc1ccc2c(-c3ccnc(Nc4ccc(N5CCN(C)CC5)cc4)n3)cnn2n1", 100),
    ("NS(=O)(=O)c1cccc(-c2ccc3ncc(N4CCOCC4)nc3c2)c1", 2),
    ("CCn1cnc2c(N)ncnc21", 0),
    ("CN1c2ccc(NCc3ccc(F)cc3)cc2-c2c(cnn2C)S1(=O)=O", 0),
    ("O=C(NCCNc1ccnc(Nc2ccc(F)cc2)n1)Nc1ccccc1F", 28),
    ("COc1ccc(S(=O)(=O)NC2CCN(c3cc(C)nc(Nc4cccc(C#N)c4)n3)CC2)cc1.O=C(O)C(F)(F)F", 23),
    ("CCc1ccnc(/C=C/c2n[nH]c3cc(Sc4ccccc4C(=O)NC)ccc23)c1", 9),
    ("COc1cc2ncn(-c3cc(OCc4sccc4Cl)c(C(N)=O)s3)c2cc1OC", 19),
    ("Cc1nnc(-c2ccc3occ(-c4ccc(C(C)O)cc4)c3c2)o1 (stereo not drawn)", 6),
    ("O=c1cc(N2CCOCC2)nc2n(Cc3cccc(F)c3)ccn12", 0),
    ("Fc1ccc(-c2ncn(CCCN3CCOCC3)c2-c2cccnc2)cc1", 18),
    ("COc1ccc(Nc2ncc(C#N)c(Nc3ccccc3C(N)=O)n2)cc1N1CCN(C)CC1.Cl", 100),
    ("CCc1nc(-c2cccc(C)c2)c(-c2ccnc(NCc3ccccc3)c2)s1", 0),
    ("Nc1nc(-c2ccc3c(N)n[nH]c3c2)cc(N2CCCC2)n1", 2),
    ("CC(=O)Nc1ccc(COc2ccc(Nc3ccnc4cc(-c5ccccn5)ccc34)cc2)cc1.Cl", 3),
    ("c1ccc(-c2n[nH]cc2-c2ccnc3ccccc23)nc1", 1),
]

###

The following molecules are shown together with reported %Inh values.
# Test system: ERBB2
# Measurement Parameters: concentration: 1 μM, replicates: in singlicate; n = 1

# Chemical Structure, Unit Info, %Inh
rows = [
    ("O=C(Nc1cccc(-c2nn3ncccc3c2-c2ccnc(Nc3cccc(C(F)(F)F)c3)n2)c1)c1c(F)cccc1F", "%", 92.1),
    ("O=C1NC(=O)C(N2CCc3ccccc32)=C1c1cccc(Cl)c1", "%", 0),
    ("CC(C)(C)n1cnc2c(N)ncnc21", "%", 37),
    ("CCc1ccnc(/C=C/c2n[nH]c3cc(Sc4ccccc4C(=O)NC)ccc23)c1", "%", 2),
    ("CC(=O)Nc1ccc(COc2ccc(Nc3ccnc4cc(-c5ccccn5)ccc34)cc2)cc1.Cl", "%", 12),
    ("Cc1cccc(-c2nc(Nc3ccc4ncsc4c3)c3ccccc3n2)n1", "%", 6),
    ("CN(C(=O)c1ccc(-c2cc(-c3c[nH]nc3-c3ccccn3)ccn2)cc1)C1CCOCC1", "%", 38),
    ("Cc1nnc(-c2ccc(C)c(-c3ccc(C(=O)Nc4ccc(NS(C)(=O)=O)cc4)cc3)c2)o1", "%", 33),
    ("Fc1ccc(-c2ncn(CCCN3CCOCC3)c2-c2ccccn2)cc1", "%", 10),
]

###

# Test system: CDK4-cyclinD3
# Measurement Parameters: concentration: 1 μM, replicates: in singlicate; n = 1

# Compound, %Inh, %
rows = [
    ("C[C@@H](Oc1cc(-n2cnc3ccc(NC(=O)NC(C)(C)C)cc32)sc1C(N)=O)c1ccccc1Cl", 1),
    ("Cc1nnc(-c2ccc3occ(-c4ccc(C(C)O)cc4)c3c2)o1 (stereo not shown)", 0),
    ("Cc1c(Cn2c(C)nn3c(=O)cc(N4CCOC(C)C4)nc23)cccc1C(F)(F)F (stereo not shown)", 0),
    ("Cc1cccc(-c2nc(Nc3ccc4ncsc4c3)c3ccccc3n2)n1", 0),
    ("O=C(c1ccc(-c2cc(-c3c[nH]nc3-c3ccccn3)ccn2)cc1)N1CCOCC1", 0),
    ("CN1c2ccc(CNc3ccc(F)cc3)cc2-c2c(cnn2C)S1(=O)=O", 0),
    ("O=c1cc(N2CCOCC2)nc2n(Cc3cccc(C(F)(F)F)c3)ccn12", 7),
    ("Nc1nccc(-c2c(-c3ccc(F)cc3)ncn2C2CCN(CC(F)(F)F)CC2)n1", 97.9),
    ("Cn1cc(-c2ccc3c(c2)CCN3C(=O)Cc2ccccc2Cl)c2c(N)ncnc21", 0),
    ("O=C1Cc2cc(Nc3nc(NCc4cccc(S(=O)(=O)C(F)(F)F)c4)ncc3C(F)(F)F)ccc2N1", 0),
]

###

# Test system: STK39
# Measurement Parameters: concentration: 1 μM, replicates: in singlicate; n = 1

# Compound, Unit Info, %Inh
data = [
    ("COC(=O)Nc1nc2cc(Oc3ccc(NC(=O)Nc4cc(F)ccc4F)cc3)ccc2[nH]1.Cl [GW701424]", "%", 7),
    ("Cc1nnc(-c2ccc3ncc(-c4ccc(S(C)=O)cc4)n3c2)o1 (centres unmarked)", "%", 25),
    ("CNc1ncnc2[nH]ncc12 [SKF-18355]", "%", 9),
    ("N#Cc1c(N2CCOCC2)sc(-c2ccn[nH]2)c1-c1ccc(Cl)cc1", "%", 17),
    ("Cc1c2ccc(N(C)c3ccnc(Nc4cccc(S(N)(=O)=O)c4)n3)cc2nn1Cc1ccccc1.Cl.Cl [GW787226]", "%", 0),
    ("Cc1ccc(C(=O)NCC(N)=O)cc1-n1c(C)cc(OCc2ccc(F)cc2F)c(Br)c1=O", "%", 0),
    ("CCc1ccnc(/C=C/c2n[nH]c3cc(Sc4ccccc4C(=O)NC)ccc23)c1", "%", 0),
    ("COc1ccc(S(=O)(=O)NC2CCN(c3cc(C)nc(Nc4cccc(C#N)c4)n3)CC2)cc1.O=C(O)C(F)(F)F [GSK1653539]", "%", 17),
]

###

The following compounds are shown together with reported %Inh values.
# System: HIPK3
# Measurement Parameters: concentration: 1 μM, replicates: in singlicate; n = 1

# Compound, Unit Info, %Inh
data = [
    ("COc1ccc(CNC(=O)NC2CCN(c3ccnc(Nc4ccc(OC)cc4)n3)C2)cc1 (stereo not drawn) [GSK1379727]", "%", 23),
    ("NS(=O)(=O)c1cccc(-c2ccc3nccc(-c4cccc(S(N)(=O)=O)c4)c3c2)c1 [GW867253]", "%", 27),
    ("Cc1cccc(-c2nc(-c3ccc(S(C)(=O)=O)cc3)sc2-c2ccncc2)c1", "%", 15),
    ("Cl.Nc1ncnc2occ(-c3ccc(NC(=O)Nc4cc(C(F)(F)F)ccc4F)cc3)c12 [SB-707548]", "%", 77),
    ("O=C(Nc1cccc(-c2nn3ncccc3c2-c2ccnc(Nc3cccc(C(F)(F)F)c3)n2)c1)c1c(F)cccc1F [GSK299495]", "%", 1),
    ("COc1ccc(S(=O)(=O)NC2CCN(c3cc(C)nc(Nc4cccc(C#N)c4)n3)CC2)cc1.O=C(O)C(F)(F)F [GSK1653539]", "%", 4),
]

###

# System: BRSK1
# Measurement Parameters: concentration: 1 μM, replicates: in singlicate; n = 1

# Molecule, Assay Target, %Inh [%]
rows = [
    ("CCc1ccnc(/C=C/c2n[nH]c3cc(Sc4ccccc4C(=O)NC)ccc23)c1", "BRSK1", 27),
    ("Cn1ccc2ncnc(Oc3ccc(NC(=O)Nc4ccncc4)c(Cl)c3)c21", "BRSK1", 0),
    ("Cn1cc(-c2ccc3c(c2)CCN3C(=O)Cc2ccccc2Cl)c2c(N)ncnc21 [GSK2608885]", "BRSK1", 0),
    ("CNc1ncnc2[nH]ncc12 [SKF-18355]", "BRSK1", 0),
    ("CC(=O)Nc1ccc(COc2ccc(Nc3ccnc4cc(-c5ccccn5)ccc34)cc2)cc1.Cl [GW440148]", "BRSK1", 0),
    ("COc1ccc(CNC(=O)NC2CCN(c3ccnc(Nc4ccc(OC)cc4)n3)C2)cc1 (centres unmarked) [GSK1379727]", "BRSK1", 0),
    ("Cc1nnc(-c2ccc(C)c(-c3ccc(C(=O)Nc4ccc(NS(C)(=O)=O)cc4)cc3)c2)o1 [GW702865]", "BRSK1", 9),
    ("COc1ccc(Nc2nccc(N3CCC(NC(=O)Nc4cccc(C(C)=O)c4)C3)n2)cc1 (centres unmarked) [GSK1379731]", "BRSK1", 0),
]
